# ASSAY REMARKS: Hemolytic activity in human erythrocytes measured after 1 hr by microtiter plate method
# Type: ADME, cell-based, Erythrocyte
# PROTOCOL CONDITIONS: read-out: CC50
This section presents molecules with their documented HC50 at 1 h values.

# count of solved cases: 5
{"MOLECULE": "COc1cc(/C=N/NC(=O)c2nc(-c3ccc(Br)cc3)no2)ccc1O", "MEASURED ATTRIBUTE": "HC50 at 1 h", "RECORDED MEASUREMENT": "33 µg/mL"}
{"MOLECULE": "O=C(N/N=C/c1ccc2c(c1)OCO2)c1nc(-c2ccc(O)cc2)no1", "MEASURED ATTRIBUTE": "HC50 at 1 h", "RECORDED MEASUREMENT": "> 100 µg/mL"}
{"MOLECULE": "CCN(CC)CCCC(C)Nc1ccnc2cc(Cl)ccc12 (stereo unspecified)", "MEASURED ATTRIBUTE": "HC50 at 1 h", "RECORDED MEASUREMENT": "> 100 µg/mL"}
{"MOLECULE": "COc1cc(/C=N/NC(=O)c2nc(-c3ccc([N+](=O)[O-])cc3)no2)ccc1O", "MEASURED ATTRIBUTE": "HC50 at 1 h", "RECORDED MEASUREMENT": "> 100 µg/mL"}
{"MOLECULE": "COc1cc(/C=N/NC(=O)c2nc(-c3ccc(C)cc3)no2)ccc1O", "MEASURED ATTRIBUTE": "HC50 at 1 h", "RECORDED MEASUREMENT": "> 100 µg/mL"}

Which measured HC50 at 1 h value corresponds to `COc1cc(/C=N/NC(=O)c2nc(-c3ccc(O)cc3)no2)ccc1O` ?
> 100 µg/mL

---

# ASSAY REMARKS: Selectivity index, ratio of CC50 for human HepG2 cells assessed as cell growth inhibition measured after 72 hrs by alamar blue assay to IC50 for chloroquine-resistant blood stage Plasmodium falciparum W2 infected in human erythrocytes assessed as parasite growth inhibition incubated for 24 hrs followed by [3H]-hypoxanthine addition and further incubated for 24 hrs followed by cooling and measured after 24 hrs by beta radiation counter analysis
# Assay type: toxicity, cell-based
# PROTOCOL CONDITIONS: read-out: Ratio CC50/IC50
This section presents compounds with their documented selectivity ratio at 72 h values.
Number only, no unit.

{"COMPOUND": "O[C@@H](c1cc(C(F)(F)F)nc2c(C(F)(F)F)cccc12)[C@H]1CCCCN1 [(S,R)-MEFLOQUINE]", "selectivity ratio at 72 h": 295}

Which measured selectivity ratio at 72 h value corresponds to `COc1cc(/C=N/NC(=O)c2nc(-c3ccc([N+](=O)[O-])cc3)no2)ccc1O` ?
74

And for `COc1cc(/C=N/NC(=O)c2nc(-c3ccc(C)cc3)no2)ccc1O` ?
388

And for `COc1cc(/C=N/NC(=O)c2nc(-c3ccc(Br)cc3)no2)ccc1O` ?
241

---

# ASSAY REMARKS: Cytotoxicity against human HepG2 cells assessed as reduction in cell growth measured after 72 hrs by alamar blue assay
# Format: cell-based
This section presents compounds with their documented CC50 at 72 h values.
Kindly provide the numeric value in µM only, without the unit symbol.

{"COMPOUND": "COc1cc(/C=N/NC(=O)c2nc(-c3ccc(C)cc3)no2)ccc1O", "CC50 at 72 h, µM": 46.6}
{"COMPOUND": "COc1cc(/C=N/NC(=O)c2nc(-c3ccc(Br)cc3)no2)ccc1O", "CC50 at 72 h, µM": 16.9}
{"COMPOUND": "O[C@@H](c1cc(C(F)(F)F)nc2c(C(F)(F)F)cccc12)[C@H]1CCCCN1 [(S,R)-MEFLOQUINE]", "CC50 at 72 h, µM": 11.8}

Which measured CC50 at 72 h value corresponds to `COc1cc(/C=N/NC(=O)c2nc(-c3ccc([N+](=O)[O-])cc3)no2)ccc1O` ?
14.8
